System: RSV
Test: Antiviral assay (PRA): inhibition of RSV syncytial plaque formation on Hep2 cell monolayers
Format: cell-based
Conditions: human respiratory syncytial virus, HEp-2; Table 2; RSV-infected Hep2 cells, 48 hours, syncytia counted; read-out: PRA (IC50)
Protocol: The lower the observed level of fusion, the greater the antiviral activity of the compound was determined to be. Uninfected confluent monolayers (seeded at 2.2×10^4 cells/well) of Hep2 cells were grown in microtiter wells (96-well plates) in EMEM (Eagle Minimum Essential Medium w/o L-glutamine [Bio Whittaker Cat. […] The number of syncytia per well were then counted, using a dissecting microscope. […] The number of syncytia per well were counted using a dissecting microscope. […]
Rule: measured IC50 below 5 nM gets YES; anything equal to or greater than 5 nM gets NO.

# input Field: below-cutoff. Rule: recorded IC50 strictly less than 5 nM. Subject: "CC(=O)N1CCN(Cc2nc3cccnc3n2Cc2nc3ccccc3[nH]2)CC1"
# output YES

# input Field: below-cutoff. Rule: recorded IC50 strictly less than 5 nM. Subject: "c1ccc2c(c1)CN(Cc1nc3cccnc3n1Cc1nc3ccccc3[nH]1)C2"
# output NO

# input Field: below-cutoff. Rule: recorded IC50 strictly less than 5 nM. Subject: OCC1CCCN1Cc1nc2cccnc2n1Cc1nc2ccccc2[nH]1 (stereo not shown)
# output YES

# input Field: below-cutoff. Rule: recorded IC50 strictly less than 5 nM. Subject: "O=S(=O)(c1ccc(F)cc1F)N1CCN(Cc2nc3cccnc3n2Cc2nc3ccccc3[nH]2)CC1"
# output NO

# input Field: below-cutoff. Rule: recorded IC50 strictly less than 5 nM. Subject: OCCC1CCCCN1Cc1nc2cccnc2n1Cc1nc2ccccc2[nH]1 (stereo not shown)
# output NO

Now consider the entry below.
# input Field: below-cutoff. Rule: recorded IC50 strictly less than 5 nM. Subject: "O=C(Cc1ccccc1)N1CCN(Cc2nc3cccnc3n2Cc2nc3ccccc3[nH]2)CC1"
# output NO
